Test system: Chordin-like protein 2 (CHRDL2)
Assay: CHRDL2 small-molecule binders, primary screen, biochemical, small-molecule microarray, 635 nm fluorescence (AID 1126);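 also: printed compound slides probed with Chrdl2 protein at 4 µg/mL for 1 h at 4 C; score merges 667 nm emission intensity with signal to noise over three replicate slides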
Details: small-molecule microarray binding, fluorescence 635 nm; higher = more signal
Hi there, I'd appreciate the recorded composite z-score for every entry that follows.
// print number alone

Prompt: # composite z-score lookup, item COc1ccccc1CN1C(=O)c2ccccc2[C@@H](C(=O)NCCN2CCOCC2)[C@@H]1c1ccc(CO)cc1
Response: -0.159

Prompt: Moving on to COc1ccc([Si](C)(C)[C@H]2[C@H](CC(=O)N(CCO)Cc3ccccc3)O[C@@]3(C(=O)N(Cc4cccc(N5CCC5=O)c4)c4ccccc43)[C@@H]2C)cc1
Response: 1.1

Prompt: Moving on to COCCOC(=O)N1C(=O)[C@@]2(c3cc(C#CCC(C(=O)OC)C(=O)OC)ccc31)[C@H](c1ccccc1OCCO)N1[C@H](c3ccccc3)[C@H](c3ccccc3)OC(=O)[C@H]1[C@@H]2C(N)=O
Response: 0.237

Prompt: Moving on to COC(=O)c1ccc(C(O)C2C=CC3C(=O)N(c4ccccc4)C(=O)C3N2Nc2ccc(C#N)cc2)o1 (centres undefined)
Response: 0.0997
